- Test system: P. aeruginosa R590
- experimental details: Chequerboard combination efficacy of adjuvant with antibiotics
- Type: cell-based
- condition: antibiotic Rifampicin; P. aeruginosa R590
Threshold 1 µg/mL. MIC of antibiotic in presence of adjuvant below it: Criterion met. MIC of antibiotic in presence of adjuvant at it or above: Criterion not met.

Exercise: For this compound, is MIC of antibiotic in presence of adjuvant lower than 1 µg/mL? NCCCC[C@H](N)C(=O)NCCCCCCN(CCCCCCNC(=O)[C@@H](N)CCCCN)C(=O)CC(c1ccccc1)c1ccccc1
Key: Criterion met

Exercise: For this compound, is MIC of antibiotic in presence of adjuvant lower than 1 µg/mL? NCCCN(CCCN)C(=O)CC(c1ccccc1)c1ccccc1.O=C(O)C(F)(F)F.O=C(O)C(F)(F)F
Key: Criterion not met

Exercise: For this compound, is MIC of antibiotic in presence of adjuvant lower than 1 µg/mL? CC(C)(C)OC(=O)NC(Cc1c[nH]c2ccccc12)C(=O)N(CCCN)CCCN.O=C(O)C(F)(F)F.O=C(O)C(F)(F)F.O=C(O)C(F)(F)F (stereo not shown)
Key: Criterion not met

Exercise: For this compound, is MIC of antibiotic in presence of adjuvant lower than 1 µg/mL? NCCCCCCN(CCCCCCN)CC(=O)NC1C2CC3CC(C2)CC1C3.O=C(O)C(F)(F)F.O=C(O)C(F)(F)F.O=C(O)C(F)(F)F (stereo not shown)
Key: Criterion met

Exercise: For this compound, is MIC of antibiotic in presence of adjuvant lower than 1 µg/mL? NCCCN(CCCN)C(=O)Cc1cccc2ccccc12.O=C(O)C(F)(F)F.O=C(O)C(F)(F)F
Key: Criterion not met

Exercise: For this compound, is MIC of antibiotic in presence of adjuvant lower than 1 µg/mL? NCCCC[C@H](N)C(=O)NCCCN(CCCNC(=O)[C@@H](N)CCCCN)C(=O)CC(c1ccccc1)c1ccccc1
Key: Criterion not met

Exercise: For this compound, is MIC of antibiotic in presence of adjuvant lower than 1 µg/mL? NCCCC[C@H](N)C(=O)NCCCN(CCCNC(=O)[C@@H](N)CCCCN)CC(=O)NC1C2CC3CC(C2)CC1C3.O=C(O)C(F)(F)F.O=C(O)C(F)(F)F.O=C(O)C(F)(F)F.O=C(O)C(F)(F)F.O=C(O)C(F)(F)F (stereo partly shown)
Key: Criterion met

Exercise: For this compound, is MIC of antibiotic in presence of adjuvant lower than 1 µg/mL? NCCCC[C@H](N)C(=O)NCCCCCCN(CCCCCCNC(=O)[C@@H](N)CCCCN)C(=O)Cc1cccc2ccccc12
Key: Criterion met

Exercise: For this compound, is MIC of antibiotic in presence of adjuvant lower than 1 µg/mL? NCCCN(CCCN)CC(=O)NC1C2CC3CC(C2)CC1C3.O=C(O)C(F)(F)F.O=C(O)C(F)(F)F.O=C(O)C(F)(F)F (stereo not shown)
Key: Criterion met

Exercise: For this compound, is MIC of antibiotic in presence of adjuvant lower than 1 µg/mL? NCCCC[C@H](N)C(=O)NCCCCCCN(CCCCCCNC(=O)[C@@H](N)CCCCN)CC(=O)NC1C2CC3CC(C2)CC1C3 (stereo partly shown)
Key: Criterion met

Exercise: For this compound, is MIC of antibiotic in presence of adjuvant lower than 1 µg/mL? NCCCC[C@H](N)C(=O)NCCCN(CCCNC(=O)[C@@H](N)CCCCN)C(=O)Cc1cccc2ccccc12
Key: Criterion not met
